Parameter EC50: see the listing below.
# Assay system: human GLP-1R receptor (Homo sapiens)
# Sequence (P43220 24-463): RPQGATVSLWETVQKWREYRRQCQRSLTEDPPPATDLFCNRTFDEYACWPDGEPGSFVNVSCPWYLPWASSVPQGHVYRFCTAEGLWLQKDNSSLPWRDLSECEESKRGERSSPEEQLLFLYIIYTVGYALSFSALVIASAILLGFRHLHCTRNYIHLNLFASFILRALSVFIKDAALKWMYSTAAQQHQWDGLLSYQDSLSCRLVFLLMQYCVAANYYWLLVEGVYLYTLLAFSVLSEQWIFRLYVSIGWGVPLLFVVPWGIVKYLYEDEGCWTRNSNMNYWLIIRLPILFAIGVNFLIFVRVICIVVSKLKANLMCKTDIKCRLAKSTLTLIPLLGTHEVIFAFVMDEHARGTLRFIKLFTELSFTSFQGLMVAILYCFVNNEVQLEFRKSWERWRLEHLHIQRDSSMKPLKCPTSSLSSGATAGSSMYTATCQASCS
# Assay summary: GLP-1R low expression cell assay (cAMP TR-FRET, CHO-K1_hGLP-1Rlow_clone10)
# Condition description: CHO-K1_hGLP-1Rlow_clone10 cells
Expressed in nM, but write only the number.

# annotated cases, reported EC50 shown
Molecule: O=C(O)c1ccc2nc(CN3CCC(c4nccc(OCc5ccc(Cl)cc5F)n4)CC3)n(Cc3cncs3)c2c1 [Compound 23]
EC50 (nM): 3.3
--
Molecule: N#Cc1cc(F)c2nc(COc3cccc(C4CCN(Cc5nc6ccc(C(=O)O)cc6n5Cc5cncs5)CC4)n3)sc2c1 [Compound 5]
EC50 (nM): 5.4
--
Molecule: N#Cc1ccc(COc2cccc(C3CCN(Cc4nc5ccc(C(=O)O)cc5n4Cc4cncs4)CC3)n2)c(F)c1 [Compound 2]
EC50 (nM): 3.1

Next molecule, EC50 to be filled in.
Query: For N#Cc1cc(F)c2nc(COc3cccc(C4CCN(Cc5nc6ccc(C(=O)O)cc6n5Cc5scnc5Br)CC4)n3)sc2c1 [Compound 6] , write its EC50.
Response: 135
